Values from PubChem BioAssay AID1919003

system: 786-0 complex spheroids with HUVEC/MSC, growth % test/control; assay: Anticancer human tumor 786-0 cell line growth inhibition [AhR]; details: second compound 0.1 µM; first compound 10 µM; active = viability on the fitted dose curve at most 10% of control; inactive = the rest;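 also: compound exposure lasted seven days before the read-out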
Please reply with one of these outcomes: True = active, False = inactive

Some entries whose results are on file:
[
  {
    "MOLECULE": "O=C(c1cc(Cc2n[nH]c(=O)c3ccccc23)ccc1F)N1CCN(C(=O)C2CC2)CC1 + CC(CO)NC(=O)c1cc(-c2ccc(Cl)cc2)nn(-c2cnn(C)c2)c1=O",
    "TARGET_OF_ASSAY": "786-0 complex spheroids with HUVEC/MSC, growth % test/control",
    "CLASS_LABEL": "False"
  },
  {
    "MOLECULE": "COc1ccc([C@@H](O)c2cc(-c3ncnc4cc(N5CCOCC5)ccc34)c(F)cc2Cl)nn1 + CC(CO)NC(=O)c1cc(-c2ccc(Cl)cc2)nn(-c2cnn(C)c2)c1=O",
    "TARGET_OF_ASSAY": "786-0 complex spheroids with HUVEC/MSC, growth % test/control",
    "CLASS_LABEL": "False"
  },
  {
    "MOLECULE": "Nc1ccccc1NC(=O)c1ccc(CNC(=O)OCc2cccnc2)cc1 + Cc1ccccc1N=Nc1ccc(NC(=O)c2ccnn2C)c(C)c1",
    "TARGET_OF_ASSAY": "786-0 complex spheroids with HUVEC/MSC, growth % test/control",
    "CLASS_LABEL": "False"
  },
  {
    "MOLECULE": "COc1cc(C2c3cc4c(cc3C(OC3OC5COC(C)OC5C(O)C3O)C3COC(=O)C23)OCO4)cc(OC)c1O (stereo not drawn) + CC(CO)NC(=O)c1cc(-c2ccc(Cl)cc2)nn(-c2cnn(C)c2)c1=O",
    "TARGET_OF_ASSAY": "786-0 complex spheroids with HUVEC/MSC, growth % test/control",
    "CLASS_LABEL": "True"
  },
  {
    "MOLECULE": "CC1COCCN1c1cc(C2(S(C)(=N)=O)CC2)nc(-c2ccnc3[nH]ccc23)n1 (stereo not drawn) + CC(CO)NC(=O)c1cc(-c2ccc(Cl)cc2)nn(-c2cnn(C)c2)c1=O",
    "TARGET_OF_ASSAY": "786-0 complex spheroids with HUVEC/MSC, growth % test/control",
    "CLASS_LABEL": "False"
  }
]

Short answer needed: outcome of this test for COc1cc(Nc2ncc3c(n2)-c2ccc(Cl)cc2C(c2c(F)cccc2OC)=NC3)ccc1C(=O)O + Cc1ccccc1N=Nc1ccc(NC(=O)c2ccnn2C)c(C)c1 ? False

Short answer needed: outcome of this test for CC1(C)CCC(CN2CCN(c3ccc(C(=O)NS(=O)(=O)c4ccc(NCC5CCOCC5)c([N+](=O)[O-])c4)c(Oc4cnc5[nH]ccc5c4)c3)CC2)=C(c2ccc(Cl)cc2)C1 + Cc1ccccc1N=Nc1ccc(NC(=O)c2ccnn2C)c(C)c1 ? False

Short answer needed: outcome of this test for COc1cc(C2c3cc4c(cc3C(OC3OC5COC(C)OC5C(O)C3O)C3COC(=O)C23)OCO4)cc(OC)c1O (stereo not drawn) + Cc1ccccc1N=Nc1ccc(NC(=O)c2ccnn2C)c(C)c1 ? False

Short answer needed: outcome of this test for Nc1ccccc1NC(=O)c1ccc(CNC(=O)OCc2cccnc2)cc1 + Cc1cncc(-c2nc(NCCc3c[nH]c4ccccc34)c3ncn(C(C)C)c3n2)c1 ? False

Short answer needed: outcome of this test for COc1cccc2c1C(=O)c1c(O)c3c(c(O)c1C2=O)CC(O)(C(=O)CO)CC3OC1CC(N)C(O)C(C)O1 (stereo not drawn) + Cc1ccccc1N=Nc1ccc(NC(=O)c2ccnn2C)c(C)c1 ? True

Short answer needed: outcome of this test for NS(=O)(=O)OCC1CC(n2ccc3c(NC4CCc5ccccc54)ncnc32)CC1O (stereo not drawn) + Cc1cncc(-c2nc(NCCc3c[nH]c4ccccc34)c3ncn(C(C)C)c3n2)c1 ? True

Short answer needed: outcome of this test for Nc1ccn(C2OC(CO)C(O)C2(F)F)c(=O)n1 (stereo not drawn) + CC(CO)NC(=O)c1cc(-c2ccc(Cl)cc2)nn(-c2cnn(C)c2)c1=O ? True

Short answer needed: outcome of this test for Nc1ccccc1NC(=O)c1ccc(CNC(=O)OCc2cccnc2)cc1 + CC(CO)NC(=O)c1cc(-c2ccc(Cl)cc2)nn(-c2cnn(C)c2)c1=O ? False

Short answer needed: outcome of this test for NS(=O)(=O)OCC1CC(n2ccc3c(NC4CCc5ccccc54)ncnc32)CC1O (stereo not drawn) + Cc1ccccc1N=Nc1ccc(NC(=O)c2ccnn2C)c(C)c1 ? True
